FYI, the data here is from the supplement of paper PMC9170038.

System: K4 kissing-loop RNA reporter
Test: apparent KD of K4 kissing-loop reporter; higher = weaker reporter binding
Conditions: Eterna round: R107; input ligand: tryptophan 2.4 mM
endpoint_label: apparent KD of K4 kissing-loop reporter

>>> reported("AGUGAUAUAUGAGGAUAUGGGUUAAUUAGUGAGUUAUUUUUAGUGUUGUUUGAUUAGUGAUGUUAUUUAGAAGGCGUGAGUGAUG [awwswmjmullin]")
"0.0617 µM"
>>> reported("GGUAGCAUGGCGGCCGCCACUCAUCGCCUCCCAUCGUCGGGAAGAAUAAGUGUAGUGAUGUUACAGAGGACCGGGCCAUGCUACC")
"0.268 µM"
>>> reported("GGCAUGGUGACGCGGCUGCCAUGCACUUGGGAGGAUAUGUUUCGUGACAGAAGGCCCAGUGAUGUUGGGUCUGUUCAAAAGGACU [Lerere]")
"0.119 µM"
>>> reported("GAAGGUCAAAGACCUUCGUGCACAACUGAUACCAGUCGCGAAAGCGACCCUUGGCAGCAGGGCAGUGAUGUUGCCAGUGCACAAA [Omei KL Theo A SS A v3]")
"0.169 µM"
>>> reported("UCGGACCCUGGAGGAUAUGAGUCGAGUGAUGUUCGGCGGUCCAUGCCGGUGCGGCGUUAUGCCCUUUUAGAAGGCCAGGGUCCGA [#2 Exclusion - FMN B Attempt #11 (HarryS)]")
"0.212 µM"
>>> reported("UGAUACCAGACUGAUACCAGCCAGUGAUGUUGGCUAAGCCGAAGAGGUGUCAUAGACACCGGCCCUUGGCAGCAGUCUGGUAUCU [#07 K4 Theophylline B Exclusion]")
"0.117 µM"
>>> reported("AACUGCCAAGGAACAUUGUAAGAAGGUGAUACCAGCAUCGAAAGAUGCCCUUGGCAGCACCAACUUGCAGUGAUGUUGCAAGUAA [Design5]")
"0.159 µM"
>>> reported("ACGUCUCGUUAAAUCGUGGUUUCGAUCGAUACCAGUAGCGAGAGUUACCCUUGGCAGCGAAAUGAGUGAUGUUCAUGAAAGAAGA [KL-XTheoA9]")
"0.0573 µM"
>>> reported("UUUCGGUUCUGAGGAUAUUCGGACAAAUAUAGUGAUGUUGUAUAAGGAGGAGGGUGUUGGCAGUGAGGAGAAGGCAGAAGAGGAU [ExFMNB.T]")
"0.622 µM"
>>> reported("UUCAUCGUGGUUCGCGGGUGGUAUGAAAAGCGAGGACCGGUACGGCCGCCACUCGGUUCCGCUUGUUGAGUGAUGUUCAAUAUUU")
"0.229 µM"
>>> reported("AGGAUCCGUCGACAAAAGUCGACAUAAACCAAGGAUAUGACGAAAGUCAGAAGGUGGUCAUAAGACCAGUGAUGUUGGUGGAUCC [FmnA 11 #SwitchBubble #K4Late]")
"0.379 µM"
>>> reported("GUAUCGCUAGGAGGAUAUUUCAAAUCGCCAAUAAAUGGUGAUACGGAGUGAUGUUCCGAUUUACGGAAAGAAGGCCUAGUGAUAC [FMN B 6]")
"0.268 µM"

* * *

Tested on: MS2 coat protein
Test: apparent KD of MS2 coat protein; higher = weaker reporter binding
Settings: Eterna round: R107; input ligand: theophylline 20 uM
endpoint_label: apparent KD of MS2 coat protein (nM)

>>> reported("ACCUCAAUGGAUGAUACCAGCUCAAGGACGAACAUGAGGAUCACCCAUGUGACGUGGUGUAGCCCUUGGCAGCAUACUGACACCU [theeternabot_sameState_MS2_Theo_B_24]")
49
>>> reported("AAACAUGAGGAUCACCCAUGUAAUUCAGAAGGAGCGUCAUUAUUGACAGGUAGGUCGCUGAUAAAAUUUCUAUACAUCAUGUAUA [JR_SSArginiA_Sub013]")
15.7
>>> reported("ACACAUGACAGAAGGAGCGGAAUGAACACACAUGAGGAUCACCCAUGUUUUUUUUGUGUUUUCCAGGUAGGUCGCUGACAUGAGG [#20 Same State - Arginine B]")
20.7
>>> reported("AAUAAACAUGAGGAUCACCCAUGUAUGGAAGGAGCGGUGAAUAAACCAGGUAGGUCGCCAGUGUGAGGGUCAUCUAUGUAAUCAA [Exclusion - Arginine A (Freestyle 3)]")
58.3
>>> reported("ACGUAAUGCAGAAGGAGCGUCGACCUCUUACAUGAGGAUCACCCAUGUUGCAUGGUUGUACGACAGGUAGGUCGCUGAAGUACGA [#05 Exclusion - Arginine B]")
89.5
>>> reported("GAUGAACUAUUUGAUACCAGACUACAUGAGGAUCACCCAUGUGUGUUUAUACUUCAGUCAGUCCCUUGGCAGCAAAUAGUUUAUC [XTheo B #3]")
183

* * *

System: K4 kissing-loop RNA reporter;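 also: bound reporter read as fluorescence of individual clusters on recovered sequencing chips by microscopy, with normalized cluster intensities fitted with a binding model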
Experiment: apparent KD of K4 kissing-loop reporter; higher = weaker reporter binding
Settings: Eterna round: R107; input ligand: tryptophan 2.4 mM
# binarize apparent KD of K4 kissing-loop reporter: threshold 100 nM inclusive, high side 1 (yes), low side 0 (no)

>>> class_name("UGUCAUUGGUCGGCCGCCACUAGACGGACAUAAAGUCUGUCAUAAAGAGUGAUGUUCUUAAAUAAUAGGACCGGGACCGAUGACU [TrypBS 29 #SwitchBubble #StaticStem]")
"1 (yes)"
>>> class_name("UUGGGCAACCGAGAUACCAGUCAAAUCGCUCUGGAGUGAUGUUCCGGAACAUGCGGAGAAGACCCUUGGCAGCUCAAGACGGACA [Exclusion Theophylline B GF 1]")
"0 (no)"
>>> class_name("GGUGACAGCCAGGAGUGAUGUAUAGAAUAGCGAGGACCGGUACGGCCGCCACUCGUGAAGAGAAGGGAGUGAUGUUCCGUAAUGG [Kazoo C]")
"1 (yes)"
>>> class_name("CAUAGGAAACUAUGUAUCUCUCUUACUGAAGGAGCGCGUGAAAACGCAGGUAGGUCGCAGAAUUUAAUAGAGAGUGAUGUUCUCU [Ex Arginine A K4 7]")
"1 (yes)"
>>> class_name("AUAUUAACUCAGUGAUGUUGAGUUGACGAAGGAGCGCUAGAGAUAGCAGGUAGGUCGCGUCAAUUUAAUGGAGACUAGCUUUACG [Arg A Ex t4]")
"1 (yes)"
>>> class_name("UAUCUUUGCUGAAGGAGCGAGCAUGUUGGAGUGAUGUUCCGUGCGAGUGAUGUUCGCAUAGCUCAGGUAGGUCGCAGUGGGAGGA [KL-SSArg B29]")
"0 (no)"
>>> class_name("AUAUUUAUUUAGUCACUUUUCAUAUUAUGUCAGGAUAUCGUAUUUUCGAGAAGGGACUCAUGCUAGUGAUGUUAGCUAUUUCUCA [JR_Nu3_ExcFMNA_Sub022]")
"1 (yes)"
>>> class_name("ACCUGUGACUGAAGGAGCGUCUACUCCAGAGGAUGGAGUGAUGUUCCACUUUAAUGGAGUGGACAGGUAGGUCGCAGUCAUAGGA [Arg B SS t6]")
"1 (yes)"
>>> class_name("ACAGGAAUCUUUGAUACCAGAACCCGUCUACCUCCAUCCUUGGAGCAUAGUGAUGUUGUGUUCCCUUGGCAGCAAUAGGGCACAU [theeternabot_exclusion_KL_Theo_B_34]")
"1 (yes)"
>>> class_name("AUAGGAGUGAUGUUCCUUAGUUUCUCCGAUACCAGUAUGGAAACAUACCCUUGGCAGCGGGAAACCGCAGAUUAGGAAACUAGUC [Theophylline A K4 6]")
"1 (yes)"
>>> class_name("GCGGCCCAGCCGGAUACCAGUGACCCGCUGGGAACCGCGGGCCCAGAGUGAUGUUCGGGACACCCUUGGCAGCCGCCUGGGUCGC [#2 Same State - Theophylline B Attempt #18 (HarryS)]")
"1 (yes)"
>>> class_name("CUUCGUAAAGGCCCAGUGAUGUUGGGCACUCGAGGACCGGUACGGCCGCCACUCGCUCCCUAAGUCGCGCGCGUGGGCCACCGCC [Xeteoredre]")
"1 (yes)"

* * *

List of apparent KD of MS2 coat protein values.
Tested on: MS2 coat protein
Assay: apparent KD of MS2 coat protein, switch ON state; designed switch direction (-1 OFF switch, 1 ON switch): 1; higher = weaker reporter binding
Conditions: FMN input: 0 or 200 uM; Eterna round: R93 (includes R88 designs)
endpoint_label: apparent KD of MS2 coat protein (nM)

>>> reported("AGAAAACAUGAGGAUCACCCAUGUAGAAAUAUGGGAGGAUAUACAAAGACGAAAGUCGAGGUAGAAGGCCUAAAGA [Mat - Same State 1 - Meechl mod - D122]")
21.7
>>> reported("CGGAGACAUGAGGAUCACCCAUGUGAGAAGAGGCGAGGAUAUCGAAAGAAAGAAGAGAAACGAGAAGGCGCGAGGA [salish99-SS1-067]")
22.7
>>> reported("AAGAAAGAAACGUAGGAUAUCAAGAAUAUAACAUGAGGAUCACCCAUGUAAAUACGAAAGUAUAAUGAGAAGGAUGGAUGAUCUUC [Mod of Mat of Meechl]")
22.7
>>> reported("AUAAAACAUGAGGAUCACCCAUGUAAUAAGAACCGAGGAUAUGGAAAUAAUAAUAAUAAACCAGAAGGUGGUGAUC [Meechl MS2 SS1]")
110
>>> reported("GAGGACGUAGGAUAGGAUAUAUGAAUAAUUACAUGAGGAUCACCCAUGUCCAUUUAUAUGGGAACAUAGAAGGGUUGUGGUUAUC [SameState2 Malc#35]")
446
>>> reported("AGACAUAAAAGAGAGGAUAUCCAAAAGAAAACAUGAGGAUCACCCAUGUAAAAGAAAAUAAAAUGGGAGAAGGCUCACAUACAGA [Topaz 35]")
19
>>> reported("GAAAAACAUGAGGAUCACCCAUGUCGAGAGAGACGAGGAUAUCUGAAUCGAUUAGAUUACGGAGAAGGCGUGAAAG [Mat - Same State 1 - Hyphema mod - D96]")
20.3
>>> reported("AUAUGAUCAUGUGAGGAUAUCCAUAAUAAAACAUGAGGAUCACCCAUGUAUAGAUAAUAAUAAUGGGAGAAGGCACAUGAUCAAU [SS 2 M41]")
21.6
>>> reported("AAGCAACAUGAGGAUCACCCAUGUAGCAGGGUCAGAGGAUAUUUGAUCUUGGUAAGGGUUAAAGAAGGUUGAUAAA [Ceralete]")
159
>>> reported("GAGAAACAUGAGGAUCACCCAUGUAGAAAUAUGGGAGGAUAUACAGAGACGAGAGUCAAAGUAGAAGGCCUAGAAG [77%, Mat - Mod of Eli - With 4 more G's]")
32.1
>>> reported("UUAAGCCACGGGCAGGAUAUGUAUUAAAAUACAUGAGGAUCACCCAUGUGCAGGUGUAACACCUGACAGAAGGGCCAAUCGCGGC [Soondi]")
21.5
>>> reported("AUGGUGCAGGUACAGGAUAUGUUGCUCGUAACAUGAGGAUCACCCAUGUACCUAUGAGAUUAAAUGCAGAAGGGUGCACACCACG [Quorra]")
43.5
